// data source = ChEMBL document CHEMBL3588744

assay: physchem; details: phosphate buffered saline, pH 7.4, solubility
Description: Solubility of the compound in phosphate buffered saline at pH 7.4 after 1 hr by CLND method
property-measured: solubility kinetic at 1 h

Here's what some known entries look like.
Cc1cc2c(-c3cncnc3)cnc(N[C@@H]3CCNC[C@H]3OCC3CCOCC3)c2[nH]c1=O: ≥ 414 µM
CC(=O)N1CCC(CO[C@@H]2CNCC[C@H]2Nc2nccc3cc(C)c(=O)[nH]c23)CC1 (racemic): ≥ 392 µM

// field: solubility kinetic at 1 h; key: "Cc1cc2c(-c3cccnc3)cnc(N[C@@H]3CCNC[C@H]3OCC3CCS(=O)(=O)CC3)c2[nH]c1=O" ; value = ≥ 315 µM

====

assay: physchem; conditions: phosphate buffered saline, pH 7.4, solubility
property-measured: solubility kinetic at 1 h

Here's what some known entries look like.
CO[C@@H]1CNCC[C@H]1Nc1nccc2cc(C)c(=O)[nH]c12: ≥ 306 µM
COc1cncc(-c2cnc(N[C@@H]3CCNC[C@H]3OCC3CCOCC3)c3[nH]c(=O)c(C)cc23)c1: ≥ 418 µM

The record that follows has no solubility kinetic at 1 h shown yet.
// field: solubility kinetic at 1 h; key: Cc1cc2ccnc(N[C@@H]3CCNC[C@H]3OCC3CCCCCC3)c2[nH]c1=O (racemic) ; value = ≥ 316 µM

====

experiment: Permeability across phosphatidyl choline membrane at pH 7.4 after 3 hrs by HPLC with UV detection method; assay type: ADME; details: not told, read-out: permeability
In this section we review reported Papp at 3 h values for a set of molecules.

Here's what some known entries look like.
Cc1cc2c(-c3cccnc3)cnc(N[C@@H]3CCNC[C@H]3OCC3CCOCC3)c2[nH]c1=O: < 0.3 ×10⁻⁶ cm/s
Cc1cc2ccnc(N[C@@H]3CCNC[C@H]3OCC3CCOCC3)c2[nH]c1=O: < 1 ×10⁻⁶ cm/s
Cc1cc2c(-c3cccnc3)cnc(N[C@@H]3CCNC[C@H]3OCC3CCS(=O)(=O)CC3)c2[nH]c1=O: < 0.3 ×10⁻⁶ cm/s

// field: Papp at 3 h; key: "Cc1cc2ccnc(N[C@@H]3CCNC[C@H]3OCC3CCS(=O)(=O)CC3)c2[nH]c1=O" ; value = < 0.65 ×10⁻⁶ cm/s

====

target: Bromodomain-containing protein 4 (Homo sapiens, UniProt O60885, Y390A)
property-measured: IC50 (µM)

Here's what some known entries look like.
Cc1cc2ccnc(N[C@@H]3CCNC[C@H]3OCC(C)C)c2[nH]c1=O (racemic): 6.31
Cc1cc2ccnc(N[C@H]3CCNC[C@@H]3OCC3CCCCC3)c2[nH]c1=O: 12.6
Cc1cc2ccnc(N[C@@H]3CCNC[C@H]3OCC3CCCC3)c2[nH]c1=O (racemic): 10

I. Cc1cc2ccnc(N[C@@H]3CCNC[C@H]3OCC3CCOCC3)c2[nH]c1=O (racemic)
II. CO[C@@H]1CNCC[C@H]1Nc1nccc2cc(C)c(=O)[nH]c12
Out of I and II , name the one with the higher IC50. Refer to your chosen item by its label in the answer.
I
(I: 10 µM, II: 6.31 µM)
